METHOD: Human microsome stability assay
ASSAY_CONTEXT: 1 μM compound, 0.5 mg/mL liver microsomal protein, 1 mM NADPH, 37° C., 0-30 minutes
ASSAY_METRIC: Clearance of Human microsome (mL/min/kg)

- COMPOUND: "Cc1c(S(C)(=O)=O)cnc2c(-c3ccc(F)c4[nH]ncc34)c(N)c(=O)[nH]c12 [Example 143]"
  ASSAY_METRIC: "Clearance of Human microsome"
  VALUE: 6.15
- COMPOUND: "Cc1cnc2c(-c3cccc4[nH]ncc34)c(N)c(=O)[nH]c2c1 [Example 033]"
  ASSAY_METRIC: "Clearance of Human microsome"
  VALUE: 6.22
- COMPOUND: "Cc1cc2[nH]c(=O)c(N)c(-c3ccc(F)c4[nH]ncc34)c2nc1C#CC(C)O (stereo not drawn) [Example 074]"
  ASSAY_METRIC: "Clearance of Human microsome"
  VALUE: 6.15
- COMPOUND: "Cc1ncc(OCC(F)(F)F)c2c(-c3ccc(F)c4[nH]ncc34)c(N)c(=O)[nH]c12 [Example 183]"
  ASSAY_METRIC: "Clearance of Human microsome"
  VALUE: 6.20
- COMPOUND: "Nc1c(-c2ccc(F)c3[nH]ncc23)c2ncc(F)cc2[nH]c1=O [Example 004]"
  ASSAY_METRIC: "Clearance of Human microsome"
  VALUE: 6.15
- COMPOUND: "Cc1nc(C)c2[nH]c(=O)c(N)c(-c3ccc(F)c4[nH]ncc34)c2n1 [Example 084]"
  ASSAY_METRIC: "Clearance of Human microsome"
  VALUE: 6.15
- COMPOUND: "Cc1cc2[nH]c(=O)c(N)c(-c3ccc(F)c4[nH]ncc34)c2nc1Cl [Example 003]"
  ASSAY_METRIC: "Clearance of Human microsome"
  VALUE: 8.88
- COMPOUND: "COc1c(C)cnc2c(-c3ccc(F)c4[nH]ncc34)c(N)c(=O)[nH]c12 [Example 051]"
  ASSAY_METRIC: "Clearance of Human microsome"
  VALUE: 6.15
- COMPOUND: "Cc1c(C2COC2)cnc2c(-c3ccc(F)c4[nH]ncc34)c(N)c(=O)[nH]c12 [Example 122]"
  ASSAY_METRIC: "Clearance of Human microsome"
  VALUE: 6.15
- COMPOUND: "Cc1cc2[nH]c(=O)c(N)c(-c3ccc(F)c4[nH]ncc34)c2nc1C1CCNCC1 [Example 069]"
  ASSAY_METRIC: "Clearance of Human microsome"
  VALUE: 7.78
- COMPOUND: "Cc1cc2[nH]c(=O)c(N)c(-c3ccc(F)c4[nH]ncc34)c2nc1NC(C)C [Example 023]"
  ASSAY_METRIC: "Clearance of Human microsome"
  VALUE: 8.58
- COMPOUND: "Cc1cc2[nH]c(=O)c(N)c(-c3ccc(F)c4[nH]ncc34)c2nc1C(=O)O [Example 089]"
  ASSAY_METRIC: "Clearance of Human microsome"
  VALUE: 6.15
- COMPOUND: "Nc1c(-c2ccc(F)c3[nH]ncc23)c2ncc(-c3nccs3)cc2[nH]c1=O [Example 016]"
  ASSAY_METRIC: "Clearance of Human microsome"
  VALUE: 8.06
- COMPOUND: "Cc1c(C(C)(F)F)cnc2c(-c3ccc(F)c4[nH]ncc34)c(N)c(=O)[nH]c12 [Example 134]"
  ASSAY_METRIC: "Clearance of Human microsome"
  VALUE: 6.15
- COMPOUND: "Cc1cc(Cl)nc2c(-c3ccc(F)c4[nH]ncc34)c(N)c(=O)[nH]c12 [Example 091]"
  ASSAY_METRIC: "Clearance of Human microsome"
  VALUE: 6.15
- COMPOUND: "Nc1c(-c2ccc(F)c3[nH]ncc23)c2ncc(-c3ccnnc3)cc2[nH]c1=O [Example 012]"
  ASSAY_METRIC: "Clearance of Human microsome"
  VALUE: 6.15
- COMPOUND: "Cc1nc(C#N)c2c(-c3ccc(F)c4[nH]ncc34)c(N)c(=O)[nH]c2c1C [Example 161]"
  ASSAY_METRIC: "Clearance of Human microsome"
  VALUE: 6.15
- COMPOUND: "Cn1cncc1-c1cnc2c(-c3ccc(F)c4[nH]ncc34)c(N)c(=O)[nH]c2c1 [Example 008]"
  ASSAY_METRIC: "Clearance of Human microsome"
  VALUE: 6.15
- COMPOUND: "Cc1ncc(OC(F)F)c2c(-c3ccc(F)c4[nH]ncc34)c(N)c(=O)[nH]c12 [Example 185]"
  ASSAY_METRIC: "Clearance of Human microsome"
  VALUE: 6.15
- COMPOUND: "Nc1c(-c2ccc(F)c3[nH]ncc23)c2ncc(-c3ccn[nH]3)cc2[nH]c1=O [Example 009]"
  ASSAY_METRIC: "Clearance of Human microsome"
  VALUE: 6.15
- COMPOUND: "Cc1ncc(OC(C)C)c2c(-c3ccc(F)c4[nH]ncc34)c(N)c(=O)[nH]c12 [Example 182]"
  ASSAY_METRIC: "Clearance of Human microsome"
  VALUE: 6.20
- COMPOUND: "Cc1c(Cl)cnc2c(-c3ccc(F)c4[nH]ncc34)c(N)c(=O)[nH]c12 [Example 099]"
  ASSAY_METRIC: "Clearance of Human microsome"
  VALUE: 6.15
- COMPOUND: "Cc1cc2[nH]c(=O)c(N)c(-c3ccc(F)c4[nH]ncc34)c2nc1C1CN(C)C1 [Example 098]"
  ASSAY_METRIC: "Clearance of Human microsome"
  VALUE: 7.72
- COMPOUND: "Nc1c(-c2ccc(F)c3[nH]ncc23)c2ncc(N3CCOCC3)cc2[nH]c1=O [Example 019]"
  ASSAY_METRIC: "Clearance of Human microsome"
  VALUE: 6.15
- COMPOUND: "Cc1cc2[nH]c(=O)c(N)c(-c3ccc(F)c4[nH]ncc34)c2nc1C1CCN(C)CC1 [Example 082]"
  ASSAY_METRIC: "Clearance of Human microsome"
  VALUE: 6.15
- COMPOUND: "Cc1c(-c2ccnnc2)cnc2c(-c3ccc(F)c4[nH]ncc34)c(N)c(=O)[nH]c12 [Example 120]"
  ASSAY_METRIC: "Clearance of Human microsome"
  VALUE: 6.15
- COMPOUND: "Cc1c(N2CCC2)cnc2c(-c3ccc(F)c4[nH]ncc34)c(N)c(=O)[nH]c12 [Example 117]"
  ASSAY_METRIC: "Clearance of Human microsome"
  VALUE: 7.72
- COMPOUND: "Cc1cc2[nH]c(=O)c(N)c(-c3ccc(F)c4[nH]ncc34)c2nc1C#N [Example 092]"
  ASSAY_METRIC: "Clearance of Human microsome"
  VALUE: 6.15
- COMPOUND: "N#Cc1nc(C2CC2)cc2[nH]c(=O)c(N)c(-c3ccc(F)c4[nH]ncc34)c12 [Example 167]"
  ASSAY_METRIC: "Clearance of Human microsome"
  VALUE: 6.80
- COMPOUND: "Cc1cc2c(-c3ccc(F)c4[nH]ncc34)c(N)c(=O)[nH]c2nc1C [Example 107]"
  ASSAY_METRIC: "Clearance of Human microsome"
  VALUE: 7.13
- COMPOUND: "Cc1cc2[nH]c(=O)c(N)c(-c3ccc(F)c4[nH]ncc34)c2nc1C#CC1COCC1O (stereo not drawn) [Example 073]"
  ASSAY_METRIC: "Clearance of Human microsome"
  VALUE: 6.15
- COMPOUND: "Nc1c(-c2ccc(F)c3[nH]ncc23)c2ncc(C3CC3)cc2[nH]c1=O [Example 015]"
  ASSAY_METRIC: "Clearance of Human microsome"
  VALUE: 7.03
- COMPOUND: "COc1cnc2c(-c3ccc(F)c4[nH]ncc34)c(N)c(=O)[nH]c2c1 [Example 006]"
  ASSAY_METRIC: "Clearance of Human microsome"
  VALUE: 6.15

----------
METHOD: Human hepatocyte stability assay
Type: in vitro ADME
ASSAY_CONTEXT: 1 μM compound, 1*10^6 cells/mL, 2-120 min
ASSAY_METRIC: Clearance of Human hepatocyte (μL/min/10^6 cell)

- CPD_SMILES: "Cc1cc2[nH]c(=O)c(N)c(-c3ccc(F)c4[nH]ncc34)c2nc1C#CC(C)(C)O"
  REPORTED_RELATION: "="
  VALUE: 1.4
- CPD_SMILES: "Nc1c(-c2ccc(F)c3[nH]ncc23)c2ncc(Cl)cc2[nH]c1=O"
  REPORTED_RELATION: "="
  VALUE: 2.1
- CPD_SMILES: "Cc1cnc2c(-c3ccc(F)c4[nH]ncc34)c(N)c(=O)[nH]c2c1C"
  REPORTED_RELATION: "<"
  VALUE: 1
- CPD_SMILES: "COc1cnc(C)c2[nH]c(=O)c(N)c(-c3ccc(F)c4[nH]ncc34)c12"
  REPORTED_RELATION: "<"
  VALUE: 1
- CPD_SMILES: "Cc1c(CC(F)(F)F)cnc2c(-c3ccc(F)c4[nH]ncc34)c(N)c(=O)[nH]c12"
  REPORTED_RELATION: "="
  VALUE: 1.7
- CPD_SMILES: "Cc1cc2[nH]c(=O)c(N)c(-c3ccc(F)c4[nH]ncc34)c2nc1C"
  REPORTED_RELATION: "="
  VALUE: 1.6
- CPD_SMILES: "CCOc1cnc(C)c2[nH]c(=O)c(N)c(-c3ccc(F)c4[nH]ncc34)c12"
  REPORTED_RELATION: "="
  VALUE: 1.3
- CPD_SMILES: "Cc1cnc2c(-c3ccc(F)c4[nH]ncc34)c(N)c(=O)[nH]c2c1"
  REPORTED_RELATION: "="
  VALUE: 1.3
- CPD_SMILES: "Nc1c(-c2ccc(F)c3[nH]ncc23)c2ncc(C3CC3)cc2[nH]c1=O"
  REPORTED_RELATION: "="
  VALUE: 2.6
